TESTED SYSTEM: T1, human MSR1 extracellular domain expressed with a N-terminal nonahistidine tag (His9-hMSR1); R&D Systems, Cat … (human, UniProt P21757 77-451)
T1 construct: extracellular domain; Bought reagent; also called His-hMSR1; 9xHis-hMSR1
T1 sequence: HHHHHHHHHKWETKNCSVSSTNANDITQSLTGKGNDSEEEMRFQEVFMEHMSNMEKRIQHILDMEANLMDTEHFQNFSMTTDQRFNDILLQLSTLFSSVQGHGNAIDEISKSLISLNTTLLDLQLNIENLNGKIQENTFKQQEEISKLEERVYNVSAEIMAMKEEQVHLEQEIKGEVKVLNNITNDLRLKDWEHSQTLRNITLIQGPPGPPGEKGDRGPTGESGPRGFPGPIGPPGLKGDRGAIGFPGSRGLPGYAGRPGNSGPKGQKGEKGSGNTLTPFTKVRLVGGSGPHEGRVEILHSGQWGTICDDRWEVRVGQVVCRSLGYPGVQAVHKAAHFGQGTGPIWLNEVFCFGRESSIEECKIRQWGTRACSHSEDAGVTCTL
TEST SUMMARY: SPR Biacore T200, 25 C, antibody captured by anti-human Fc, His9-hMSR1 injected; no dissociation seen, kd fixed at 1.00E-05
Each entry below carries its recorded t½.

BINDER	t½
H1H27754P-N297Q (antibody, human IgG1, V domains shown, human IgG1 Fc with N297Q (EU)) VH: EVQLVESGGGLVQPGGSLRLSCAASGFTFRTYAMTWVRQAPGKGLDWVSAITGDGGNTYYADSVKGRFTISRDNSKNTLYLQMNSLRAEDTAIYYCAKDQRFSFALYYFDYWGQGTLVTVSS VL: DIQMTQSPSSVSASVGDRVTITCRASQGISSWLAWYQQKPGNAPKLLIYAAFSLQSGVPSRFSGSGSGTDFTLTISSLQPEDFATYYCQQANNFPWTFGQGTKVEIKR	≥ 1160 min
H1H27732P-N297Q-LP1 (antibody, human IgG1, V domains shown, LXR agonist linker-payload LP1 clicked to azido-PEG3-amine on Q295 and Q297 (EU) of the heavy chain constant region, antibody-drug conjugate; human IgG1 Fc with N297Q (EU); also called H1H27732P-LP1) VH: QLQLQESGPGLVKPSETLSLTCTVSGGSISSSTYYWGWIRQPPGKGLEWIGSFYYSGSTYYNPSLKSRVTISVGTSKNQFSLKLSSVTAADTAVYFCARGGLLGRPFVIWGQGTMVTVSS VL: DIQMTQSPSSLSASVGDRVTITCRASQGIRNDLGWYQQKPGKAPKRLIYAASSLQSGVPSRFSGSGSGTEFTLTISSLQPEDFATYYCLQHNSYPLTFGGGTKVEIKR	≥ 1160 min
H1H27754P-N297Q-LP1 (antibody, human IgG1, V domains shown, LXR agonist linker-payload LP1 clicked to azido-PEG3-amine on Q295 and Q297 (EU) of the heavy chain constant region, antibody-drug conjugate; human IgG1 Fc with N297Q (EU); also called H1H27754P-LP1) VH: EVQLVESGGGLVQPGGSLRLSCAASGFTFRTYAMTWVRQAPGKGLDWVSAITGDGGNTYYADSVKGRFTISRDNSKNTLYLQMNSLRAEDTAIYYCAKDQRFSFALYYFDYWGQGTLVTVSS VL: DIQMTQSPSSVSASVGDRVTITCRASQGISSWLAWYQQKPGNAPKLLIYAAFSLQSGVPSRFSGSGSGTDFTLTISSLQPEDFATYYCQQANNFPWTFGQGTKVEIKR	≥ 1160 min
